- assaySystem: Gal(b1-3)[GlcNAc(b1-6)]GalNAc
- measurementProtocol: glycan array binding signal (z-score within array); higher = stronger binding
- assayConditions: glycan notation: IUPAC condensed, linker removed
Shown is part of a subset that was picked to be rich in the strongest signals.
assayReadout: glycan array binding signal (z-score)
I'd appreciate a reply containing only the number, no unit.

Worked cases, answers included:
[
  {
    "binder": "EUL D1A first (Oryza sativa) (protein) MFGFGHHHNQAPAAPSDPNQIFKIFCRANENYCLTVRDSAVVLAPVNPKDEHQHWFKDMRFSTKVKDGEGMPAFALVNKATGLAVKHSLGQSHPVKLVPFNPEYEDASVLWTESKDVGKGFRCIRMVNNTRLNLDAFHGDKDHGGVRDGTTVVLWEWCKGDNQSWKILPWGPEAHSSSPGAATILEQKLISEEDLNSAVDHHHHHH",
    "glycan array binding signal (z-score)": -1.03
  },
  {
    "binder": "ASA (Allium sativum) (protein) KAHEKERMGRNTPSAKLMSIAAVAAILTILASTCMARNLLTNGEGLYAGQSLNVEPYHFIMQEDCNLVLYDHSTAVWATNTDIPGKKECRAVLQSDGNFVVYDADGRPLWASHSVRGNGNYVLVLQEDGNVVIYGSDIWSTGTYVKAARGPVVVAMNGTVDGGSLIRPVIVNKNHVPVIRKVGTLSRNILRNDEGLYAGQSLDVEPYHFIMHEDCNLVLYDHSTAVWASNTDIPGKKGCKAVLQSDGNFVVYDAEGRSLWASHSVRGNGNYVLVLQEDGNVVIYGSDIWSTDTYRKSARGPVIRKVGTLAGAA",
    "glycan array binding signal (z-score)": -0.211
  }
]

Incoming: Specify reported glycan array binding signal (z-score) for the binder shown: LCA (Lens culinaris), P02870 (protein) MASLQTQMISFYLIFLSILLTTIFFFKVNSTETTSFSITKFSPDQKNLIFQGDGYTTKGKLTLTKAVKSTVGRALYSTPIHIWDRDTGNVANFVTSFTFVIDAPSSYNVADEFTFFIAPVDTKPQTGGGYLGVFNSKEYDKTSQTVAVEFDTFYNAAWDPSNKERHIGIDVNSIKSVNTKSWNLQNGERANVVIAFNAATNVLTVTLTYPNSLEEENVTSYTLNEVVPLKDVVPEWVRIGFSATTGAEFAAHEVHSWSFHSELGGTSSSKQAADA
Outgoing: -0.238
